Compiled Ki measurements on Adenosine receptor A2a (Rattus norvegicus, UniProt P30543) taken from the literature.
Sequence (P30543 whole entry): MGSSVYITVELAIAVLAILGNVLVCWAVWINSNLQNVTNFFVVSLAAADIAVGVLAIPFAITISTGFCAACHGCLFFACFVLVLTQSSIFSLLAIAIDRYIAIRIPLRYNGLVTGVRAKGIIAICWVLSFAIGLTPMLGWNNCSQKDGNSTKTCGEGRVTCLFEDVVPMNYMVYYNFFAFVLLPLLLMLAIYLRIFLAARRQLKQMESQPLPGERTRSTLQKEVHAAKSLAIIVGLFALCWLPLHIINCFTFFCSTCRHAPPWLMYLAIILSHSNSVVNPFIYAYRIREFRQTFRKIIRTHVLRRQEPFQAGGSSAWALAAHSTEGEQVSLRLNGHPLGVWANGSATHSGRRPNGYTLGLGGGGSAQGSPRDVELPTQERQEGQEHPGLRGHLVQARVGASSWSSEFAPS
The figure you give is taken to be in nM; do not add the unit.

Below are worked cases with known answers.
Nc1nc(-c2ccc(C(=O)NCCCn3ccnc3)cc2)cn2nc(-c3ccco3)nc12    330
CCNC(=O)[C@H]1O[C@@H](n2cnc3c(NC(=O)Nc4ccc(OC)cc4)ncnc32)[C@H](O)[C@@H]1O    3360
Nc1nc(-c2ccco2)cn2nc(-c3ccco3)nc12    400

Note: attention shifts to another entry.
Q) Lab request: please report Ki under test system Adenosine receptor A2a (Rattus norvegicus, UniProt P30543) for CCCn1c(=O)c2nc(C)[nH]c2n(CCC)c1=O
A) 2800

====

Compiled Ki measurements on Adenosine receptor A2a (Rattus norvegicus) taken from the literature.
So basically, if Ki comes in under 600 nM it's Yes, and if it's 600 nM or more it's No.

Use the examples below as a reference point.
CCn1c(=O)c2c(nc3n2CCCN3CCc2ccc(O)cc2)n(CC)c1=O    Yes
COc1cc(CCOc2nc(N)c3ncn(C4O[C@H](CO)[C@@H](O)[C@H]4O)c3n2)cc(OC)c1OC (some centres undefined)    Yes

Q) Does this compound meet the criterion Ki < 600 nM? COc1cc(O)c2c(c1)OC(c1ccc(O)cc1)CC2=O (centres undefined)
A) No

Q) Does this compound meet the criterion Ki < 600 nM? Cc1c(C)n([C@@H](C)c2ccccc2)c2nc(-c3ccccc3)nc(N)c12
A) No

Q) Does this compound meet the criterion Ki < 600 nM? CCO/C(O)=C1\C(C)=NC(c2ccccc2)=C(C(=O)OCc2ccc([N+](=O)[O-])cc2)C1C#Cc1ccccc1 (centres undefined)
A) No

Q) Does this compound meet the criterion Ki < 600 nM? CS(=O)(=O)c1cccc(-c2cn3nc(-c4ccco4)nc3c(N)n2)c1
A) Yes

Q) Does this compound meet the criterion Ki < 600 nM? O=C(N[C@H]1C(CO)O[C@@H](n2cnc3c(NC4CCCC4)ncnc32)[C@@H]1O)c1ccc(Cl)cc1 (single isomer, unassigned)
A) Yes

Q) Does this compound meet the criterion Ki < 600 nM? Nc1nc(N/N=C(\CO)[C@H](O)[C@@H](O)[C@@H](O)CO)nc2c1ncn2[C@@H]1O[C@H](CO)[C@@H](O)[C@H]1O
A) No

Q) Does this compound meet the criterion Ki < 600 nM? Nc1nc(N2CCN(c3ccccc3)CC2)nc2nc(-c3ccco3)nn12
A) Yes

====

Compiled Ki measurements on Adenosine receptor A2a (Rattus norvegicus) taken from the literature.
So basically, if Ki comes in under 7000 nM it's yes, and if it's 7000 nM or more it's no.

Use the examples below as a reference point.
Cc1ccc(-c2cc(-c3cccc(C(=O)N4CCOCC4)c3)nc(N)n2)o1    yes
CCCn1c(=O)c2[nH]c([C@]34CC[C@](CCC(=O)O)(CC3)CC4)nc2n(CCC)c1=O    yes
OC[C@H]1O[C@@H](n2cnc3c(NC4CCC4)ccnc32)[C@H](O)[C@@H]1O    yes
CC(NC(=O)OC(C)(C)C)C(=O)Nc1nc2ccc(Cl)cc2c2nc(-c3ccco3)nn12 (centres undefined)    yes
CC(C)(C)n1ncc2c1nc(N)n1nc(-c3ccco3)nc21    yes
CN1C(=O)N2CCN=C2c2c1nc(-c1ccccc1)n2C    no

Q) Does this compound meet the criterion Ki < 7000 nM? CCNC(=O)[C@H]1OC(n2cnc3c(N)nc(C#CNCc4ccccc4)nc32)[C@H](O)[C@@H]1O (some centres undefined)
A) yes

Q) Does this compound meet the criterion Ki < 7000 nM? Nc1nc(-c2cccc(C(F)(F)F)c2)cn2nc(-c3ccco3)nc12
A) yes

Q) Does this compound meet the criterion Ki < 7000 nM? CN(C)c1ccc(/C=C/C=N/Nc2nc(N)c3ncn([C@@H]4O[C@H](CO)[C@@H](O)[C@H]4O)c3n2)cc1
A) yes

Q) Does this compound meet the criterion Ki < 7000 nM? CCCCn1c(=O)c2[nH]c(CCCCC(=O)O)nc2n(CCCC)c1=O
A) no

Q) Does this compound meet the criterion Ki < 7000 nM? C[C@H](C(=O)Nc1nc2ccc(Cl)cc2c2nc(-c3ccco3)nn12)c1ccccc1
A) yes

Q) Does this compound meet the criterion Ki < 7000 nM? Nc1nc(NC[C@H]2CCCN2Cc2c(Cl)cccc2Cl)nc2nc(-c3ccco3)nn12
A) yes

Q) Does this compound meet the criterion Ki < 7000 nM? CCCCn1c(=O)c2c(nc3n2CCCN3CCc2ccc(OCC(=O)NCc3ccc(Cl)cc3)cc2)n(CCCC)c1=O
A) no

Q) Does this compound meet the criterion Ki < 7000 nM? Nc1nc(-c2cnn(CC3CCCCC3)c2)nc2c1ncn2[C@@H]1O[C@H](CO)[C@@H](O)[C@H]1O
A) yes

Q) Does this compound meet the criterion Ki < 7000 nM? CN(C)c1nc(NC(=O)Cc2ccccc2)n2nc(-c3ccco3)nc2n1
A) yes

Q) Does this compound meet the criterion Ki < 7000 nM? O=c1oc2ccccc2nc1-c1ccccc1
A) no
